Test system: MS2 coat protein
experiment_summary: apparent KD of MS2 coat protein; designed switch direction (-1 OFF switch, 1 ON switch): -1; higher = weaker reporter binding
assay_conditions: Eterna round: R95; input ligand: microRNA oligo, concentration not stated
reported_metric: apparent KD of MS2 coat protein (nM)

[[record]]
sequence_data = "CGGUGCUGAGGAUAUACAUGAGGAUCACCCAUGUGUGCCAGCUAGCUGACUGGCACUUGUAGAAGGCAGUACUG [JL-ex3-2.13 Brourd mod] (puzzle: Exclusion 3)"
reported_metric = "apparent KD of MS2 coat protein"
readout_units = "nM"
quantitative_result = 12.4

[[record]]
sequence_data = "AUGGACGCAGGAUAUACAUGAGGAUCACCCAUGUGAGGUAGGUAAGUAGGAAGUGAAGGUAGAAGGGCGAGAGA [JR_Exclu3_Sub096] (puzzle: Exclusion 3)"
reported_metric = "apparent KD of MS2 coat protein"
readout_units = "nM"
quantitative_result = 59.4

[[record]]
sequence_data = "GUCGUGAGACAGGAUAUCCAAUCUAAACACGAGGGAGAAGGGUCUACAUGAGGAUCACCCAUGUGGUCUCAAAA [Aonondiin] (puzzle: Exclusion 6)"
reported_metric = "apparent KD of MS2 coat protein"
readout_units = "nM"
quantitative_result = 17.2

[[record]]
sequence_data = "AAUUCACAUGAGGAUCACCCAUGUCAGGAUAUGGUGACGCGGGUUUCGGUGCGUGUUGCCAGAAGGGACGGCUG (puzzle: Exclusion 1)"
reported_metric = "apparent KD of MS2 coat protein"
readout_units = "nM"
quantitative_result = 92.4

[[record]]
sequence_data = "GAUUAUGCGAGCUUUAGGGACAUGAGGAUCACCCAUGUUCGUCUUAUUAGUCUAAGUGCACUGACAUACCUAAAUCU [JMF 83] (puzzle: Sensor v3, turn-off variant 1)"
reported_metric = "apparent KD of MS2 coat protein"
readout_units = "nM"
quantitative_result = 23.2

[[record]]
sequence_data = "GACUGUCUAGGAUAUGCGACGUUUUACAUGAGGAUCACCCAUGUUGUCUGCGUGUGUGUGGCAGAAGGAGACAAAC [Eses] (puzzle: Exclusion 5)"
reported_metric = "apparent KD of MS2 coat protein"
readout_units = "nM"
quantitative_result = 13.3

[[record]]
sequence_data = "CCUCAACAGUAGGAUAUCAUAAAACUAUUGUGAUGAGAAGGACUGACAUGAGGAUCACCCAUGUUAACGUGAUA [Exclusion 6 - 5:a] (puzzle: Exclusion 6)"
reported_metric = "apparent KD of MS2 coat protein"
readout_units = "nM"
quantitative_result = 17.4

[[record]]
sequence_data = "AGAUGUAGAUACCGAUCCUACAUGAGGAUCACCCAUGUAGCUAGACGUGCUCGCGUCGCUCGUCAGACUACCAGUAG [salish99_TOv1_r3_089] (puzzle: Sensor v3, turn-off variant 1)"
reported_metric = "apparent KD of MS2 coat protein"
readout_units = "nM"
quantitative_result = 199

[[record]]
sequence_data = "CAUUAACAUGAGGAUCACCCAUGUGAGGAUAUGGAUACAUAAUACUACUACAUAAAUACCAGAAGGCGCAUACU [Maybaline] (puzzle: Exclusion 1)"
reported_metric = "apparent KD of MS2 coat protein"
readout_units = "nM"
quantitative_result = 28

[[record]]
sequence_data = "AGUACUAACACGAAAGUGUUAGUACAAUAAGCUUGUGGAACAUGAGGAUCACCCAUGUCCUCAUAAGCUCGUCUUAU [JL-sv3-2.12 mat747 mod] (puzzle: Sensor v3, turn-off variant 2)"
reported_metric = "apparent KD of MS2 coat protein"
readout_units = "nM"
quantitative_result = 71.4

[[record]]
sequence_data = "GAGUGACAUGAGGAUCACCCAUGUGAGGAUAUCGGACGGACCAAAUUAACAAUAAAUGCGAGAAGGCGCAUCGG [Exclusion 1 V16] (puzzle: Exclusion 1)"
reported_metric = "apparent KD of MS2 coat protein"
readout_units = "nM"
quantitative_result = 43.3

[[record]]
sequence_data = "UGGGUCACAGGAUAUACAUGAGGAUCACCCAUGUCGUAUUUCGUGGCGGAGAGCUCGAGUAGAAGGGUGCAUCC [Malarala] (puzzle: Exclusion 3)"
reported_metric = "apparent KD of MS2 coat protein"
readout_units = "nM"
quantitative_result = 96.3

[[record]]
sequence_data = "GAUGAGCAUGUCAGGAUAUCCACUCUAAUAAAACAGGAGAAGGGACAUGAGGAUCACCCAUGUUCUAGACAUGA [Latealedi] (puzzle: Brourd's mod of Exclusion 4)"
reported_metric = "apparent KD of MS2 coat protein"
readout_units = "nM"
quantitative_result = 13.1

[[record]]
sequence_data = "GUAGAGUCAGGAUAUACAAGAUCGAAAGAUCGAAGAUUUAUACAUGAGGAUCACCCAUGUAGAAGGGACUCUAC [ChP 11-04-2015 #4] (puzzle: Exclusion 2)"
reported_metric = "apparent KD of MS2 coat protein"
readout_units = "nM"
quantitative_result = 12.4

[[record]]
sequence_data = "AAUAACAGAGGAUAUACUAUUUUAUGUAUUUAUUAUUUUAAACAUGAGGAUCACCCAUGUAGAAGGCUGAUUAA [JMF 42] (puzzle: Exclusion 2)"
reported_metric = "apparent KD of MS2 coat protein"
readout_units = "nM"
quantitative_result = 30.8

[[record]]
sequence_data = "AAUUAACAAGCAGGAUCCUACAUGAGGAUCACCCAUGUGCUCGUCUUAUAAAGUACUAUCACGAAAGUGAUAGUACA [Mat - Sensor v3 - turn-off var 1 - Eli Mod - D74] (puzzle: Sensor v3, turn-off variant 1)"
reported_metric = "apparent KD of MS2 coat protein"
readout_units = "nM"
quantitative_result = 566

[[record]]
sequence_data = "AAAAAGGUAGGAUAUACGAAAAAAAAGGGUAGAAAAAAAACACAUGAGGAUCACCCAUGUAGAAGGACCAAAAA [salish99_ex2_r3_043] (puzzle: Exclusion 2)"
reported_metric = "apparent KD of MS2 coat protein"
readout_units = "nM"
quantitative_result = 26.8

[[record]]
sequence_data = "CGAGAGCGAGGAUAUACACAACACCUCACUGUCAAGAAAGGACAUGAGGAUCACCCAUGUAGAAGGUGCAAAGC [Xecerevear] (puzzle: Exclusion 2)"
reported_metric = "apparent KD of MS2 coat protein"
readout_units = "nM"
quantitative_result = 412

[[record]]
sequence_data = "GCUGCGCGAGGAUAUGCGGUUUGCGCUGUGGCCCGUGGCGUACAUGAGGAUCACCCAUGUAGAAGGCGUGCGGG [Apr-15 SS2-56] (puzzle: Exclusion 2)"
reported_metric = "apparent KD of MS2 coat protein"
readout_units = "nM"
quantitative_result = 10.4

[[record]]
sequence_data = "GGUGCGUUUGUGAGGAUAUGCUGGUCCUUGGAUCAGCAGAAGGCACAUGAGGAUCACCCAUGUGGUGUCCCUCC [salish99_Bmod_Ex4_040] (puzzle: Brourd's mod of Exclusion 4)"
reported_metric = "apparent KD of MS2 coat protein"
readout_units = "nM"
quantitative_result = 154

[[record]]
sequence_data = "ACAAGCUUUUUGUUCGUCUUAUACACUCCUAAUAAGAAAACAUGAGGAUCACCCAUGUAAGAAAUAAGAACUCAUGU [Sesor Array 1 - Jieux - Sensor v3, turn-off variant 2] (puzzle: Sensor v3, turn-off variant 2)"
reported_metric = "apparent KD of MS2 coat protein"
readout_units = "nM"
quantitative_result = 303

